assayName: HILIC, Waters ACQUITY UPLC BEH Amide, 150 × 2.1 mm, 1.7 µm, 40 °C, 0.5 mL/min, estimated dead time 0.66 min; A: 5% water + 95% acetonitrile; B: 70% water + 30% acetonitrile + 10 mM ammonium formate, pH 6.5; gradient (min/%B) 0/0 2/0 20/70 23/70 24/0 31/0
conditionDetails: stereoisomer not certain
measurementName: LC retention time (min)

[P] O=C(O)C1CCCN1 (stereo not drawn)
[Q] O=c1[nH]c(=O)c2[nH]cnc2[nH]1
[R] O=C(O)c1cc(=O)c2ccccc2[nH]1 [KYNURENATE]
[S] CC(CCC(=O)O)C1CCC2C3CCC4CC(O)CCC4(C)C3CCC12C (stereo not drawn) [LITHOCHOLATE]
Ask: Kindly sort the 4 compounds above from the smallest to the largest LC retention time. // ordering of labels required in reply
Result: S, R, Q, P
(S: 0.84 min, R: 2.69 min, Q: 4.97 min, P: 8.55 min)

[I] CNCC(=O)O
[II] CC(=O)OCC[N+](C)(C)C
Ask: Would you kindly point out which of I and II has the smaller LC retention time figure? Give the label under which the chosen entry appears.
Result: II
(II: 6.38 min, I: 9.54 min)

[A] O=C(O)c1ccc2ccccc2n1 [2-QUINOLINECARBOXYLATE]
[B] CC(O)CC(=O)[O-] (stereo not drawn) [3-HYDROXYBUTANOATE]
Ask: I would appreciate it if you could say which entry, A or B , has the lower LC retention time value. Let me know the label of the one you choose.
Result: B
(B: 1.37 min, A: 8.23 min)

====

assayName: HILIC, Waters ACQUITY UPLC BEH Amide, 150 × 2.1 mm, 1.7 µm, 40 °C, 0.5 mL/min, estimated dead time 0.66 min; A: 5% water + 95% acetonitrile; B: 70% water + 30% acetonitrile + 10 mM ammonium formate, pH 6.5; gradient (min/%B) 0/0 2/0 20/70 23/70 24/0 31/0
conditionDetails: stereoisomer not certain
measurementName: LC retention time (min)

Example molecules with recorded LC retention time:
molecule	LC retention time, min
NC(=O)C1CCCN1C(=O)C(Cc1cnc[nH]1)NC(=O)C1CCC(=O)N1 (stereo unspecified) [THYROTROPIN RELEASING HORMONE]	8.34
NC1C(O)OC(COS(=O)(=O)O)C(O)C1O (stereo unspecified) [GLUCOSAMINE 6-SULFATE]	10.6
CCCCCCCCCCCCCCCC(O)C(N)CO (stereo unspecified) [SPHINGANINE]	5.14
Cn1cnc(=N)c2[nH]cnc21 [3-METHYLADENINE]	5.66
CC(O)(CCO)CC(=O)[O-] (stereo unspecified) [MEVALONATE]	3.94
Nc1ccccc1C(=O)[O-] [ANTHRANILATE]	1.11
O=C(O)Cc1cc(O)ccc1O [HOMOGENTISATE]	1.27
NC(N)=NC(CC(=O)O)C(=O)O (stereo unspecified) [GUANIDINOSUCCINATE]	10.3

[I] Nc1nc2c(ncn2C2CC(O)C(CO)O2)c(=O)[nH]1 (stereo unspecified) [DEOXYGUANOSINE]
[II] NC(CCOC(=O)CCC(=O)O)C(=O)O (stereo unspecified) [O-SUCCINYL-HOMOSERINE]
[III] CC(C)=CCNc1ncnc2nc[nH]c12 [N6-(DELTA2-ISOPENTENYL)-ADENINE]
[IV] O=CC[C@@H](O)[C@H](O)[C@H](O)CO [2-DEOXY-D-GLUCOSE]
Ask: # desc sort on LC retention time across 4 molecules Put the labels in the requested order and list them out.
Result: II, I, IV, III

[1] NC(=O)NC1NC(=O)NC1=O (stereo unspecified) [ALLANTOIN]
[2] COc1cc(CC(=O)O)ccc1O [HOMOVANILLATE]
Ask: Between 1 and 2 , which one shows the larger LC retention time value? Refer to your chosen entry by its label in the reply.
Result: 1

[I] OC1C(O)C(O)C(O)C(O)C1O (stereo unspecified) [MYOINOSITOL]
[II] CCCC(=O)[O-] [BUTANOATE]
[III] Nc1ccccc1O [2-AMINOPHENOL]
Ask: Put the items in order so that reported LC retention time rises from first to last. List each label, following the requested order.
Result: III, II, I
(III: 0.87 min, II: 1.29 min, I: 11 min)
